Data provenance: patent US20200339648A1

Molecular target: T1, mouse IL-2 receptor β subunit (mIL-2Rβ) (mouse, UniProt P16297 27-240, biotin on the C-terminal biotin acceptor peptide)
T1 construct: extracellular domain; Biotinylated form for SPR; also called MmIL-2Rβ; murine IL-2Rβ
T1 sequence: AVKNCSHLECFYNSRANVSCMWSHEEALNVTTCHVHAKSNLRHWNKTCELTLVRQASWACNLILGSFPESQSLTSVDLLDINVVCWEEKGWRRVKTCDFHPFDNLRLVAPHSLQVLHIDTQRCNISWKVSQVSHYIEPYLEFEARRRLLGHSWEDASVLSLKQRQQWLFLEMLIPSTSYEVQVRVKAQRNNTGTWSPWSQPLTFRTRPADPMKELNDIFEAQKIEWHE
Assay: SPR, equilibrium titration; biotinylated IL-2Rβ on streptavidin chip
Provide the reported Kd of each item.
Numbers only, in nM.

A selection of reference data follows.
INSERT INTO results (binder, recorded_result) VALUES
  ('G1_neo2_40_1F_M1 (designed binder) STEKTQLAAEHALRDALMLKHLLNEPNEKLARIITTMQSWQFTGKIDGDGAQELAKEVEELQQEHEVRGIDVEDYASNLKVILLHLA', 214),
  ('G1_neo2_40_1F (designed binder, also called G1_ne02_40_1F) STKKTQLLAEHALLDALMMLNLLPEPNEKLNRIITTMQSWIFTGKIDGDGAQELAKEVEELEQEHEKRGIDVEDYASNLKVILLELA', 486),
  ('G1_neo2_40_1F_M2 (designed binder) STKNTQLAAEDALLDALMLRNLLNEPNEKLARIITTMQSWQFTEKIDGDGAQELAKEVEELQQEHEERGIDVEDYASNLKVILLQLA', 2600),
  ('G1_neo2_40_1F_H5 (designed binder) STKKTQLLIEHALLDALHMSRKLPEPNEKLSRIITTMQSWIFTGKIDGDGAQHLAKEVEELEQEHEKRGGEVEDEASNLKVILLELA', 45300),
  ('G1_neo2_40_1F_H4 (designed binder) STKKTQLLLEHALLDALHMSRELPEPNEKLNRIITDMQSWIFTGKIDGDGAQDLAKEVEELEQEHEKRGGDVEDYASNLKVILLELA', 10100),
  ('G1_neo2_40_1F_H1 (designed binder) STKKTQLLIEHALLDALDMSRNLPEPNEKLSRIITTMQSWIFTGKIDGDGAQQLAKEVEELEQEHEKRGEDVEDEASNLKVILLELA', 6800),
  ('G1_neo2_40_1F_H2 (designed binder) STKKTQLLLEHALLDALHMRRNLPEPNEKLSRIITTMQSWIFTGKIDGDGAQELAKEVEELEQEHEKRGRDVEDDASNLKVILLELA', 68300),
  ('Neoleukin-2/15 (designed binder, 100 residues; also called Neo-2/15; Neolukin-2/15) PKKKIQLHAEHALYDALMILNIVKTNSPPAEEKLEDYAFNFELILEEIARLFESGDQKDEAEKAKRMKEWMKRIKTTASEDEQEEMANAIITILQSWIFS', 16.1);

# next binder below
Q. What value of measured Kd is listed for G2_neo2_40_1F_dsn36 (designed binder, E. coli, N-terminal 6xHis tag and thrombin site) PKKKIQLLAEHALLDALMILNIVKTNSQNAEEKLEDYASNVEVILEEIARLMESGDQKDEAEKAKRMKEWMKRIKTTASEDEQEEMANRIITLLQSWIFS ?
A. 2430
